- measuredOn: H1975 (EGFR L858/T790M) (Homo sapiens, UniProt P00533, L858R/T790M)
- Sequence (P00533 25-1210 T790M/L858R): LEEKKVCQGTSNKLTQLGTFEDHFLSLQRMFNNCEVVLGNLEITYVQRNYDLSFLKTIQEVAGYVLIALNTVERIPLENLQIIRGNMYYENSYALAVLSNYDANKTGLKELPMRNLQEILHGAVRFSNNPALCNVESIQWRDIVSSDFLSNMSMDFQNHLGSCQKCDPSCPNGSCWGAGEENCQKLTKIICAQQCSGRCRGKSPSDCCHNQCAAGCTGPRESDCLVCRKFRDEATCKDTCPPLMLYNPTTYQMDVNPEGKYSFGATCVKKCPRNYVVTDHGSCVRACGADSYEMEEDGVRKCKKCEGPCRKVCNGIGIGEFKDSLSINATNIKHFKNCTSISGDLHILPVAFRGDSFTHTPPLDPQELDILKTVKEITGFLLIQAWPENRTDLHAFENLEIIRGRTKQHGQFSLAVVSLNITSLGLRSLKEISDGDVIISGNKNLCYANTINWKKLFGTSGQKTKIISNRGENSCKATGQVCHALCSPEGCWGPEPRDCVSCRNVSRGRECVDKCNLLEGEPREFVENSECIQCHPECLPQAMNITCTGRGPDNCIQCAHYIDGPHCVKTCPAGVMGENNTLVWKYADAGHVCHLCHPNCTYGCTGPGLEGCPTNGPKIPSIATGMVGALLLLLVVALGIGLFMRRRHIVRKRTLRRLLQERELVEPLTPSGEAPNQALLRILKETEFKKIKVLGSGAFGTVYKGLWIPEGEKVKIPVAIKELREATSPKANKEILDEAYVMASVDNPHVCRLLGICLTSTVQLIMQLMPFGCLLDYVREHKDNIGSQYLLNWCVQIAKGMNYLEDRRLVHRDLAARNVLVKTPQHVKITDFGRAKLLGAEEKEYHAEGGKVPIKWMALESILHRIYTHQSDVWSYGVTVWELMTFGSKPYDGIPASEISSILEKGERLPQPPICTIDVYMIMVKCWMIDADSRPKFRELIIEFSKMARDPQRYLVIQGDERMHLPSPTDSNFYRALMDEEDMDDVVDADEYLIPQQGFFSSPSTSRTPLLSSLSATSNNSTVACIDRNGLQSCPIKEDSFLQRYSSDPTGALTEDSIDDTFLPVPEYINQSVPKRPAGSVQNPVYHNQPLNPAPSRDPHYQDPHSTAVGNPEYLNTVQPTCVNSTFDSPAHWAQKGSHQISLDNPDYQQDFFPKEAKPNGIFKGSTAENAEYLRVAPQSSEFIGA
- protocolSummary: EGFR target modulation in H1975 cell line (phospho-EGFR Y1173 ELISA)
pIC50: −log10 of the molar value.
observedProperty: pIC50

(P) C=CC(=O)N1CCC[C@@H](n2c(NC(=O)c3cccc(C(F)(F)F)c3)nc3cc(COCC)ccc32)C1 [Example 17-123]
(Q) C=CC(=O)N1CCCC[C@@H](n2c(NC(=O)c3ccnnc3)nc3cccc(C)c32)C1 [Example 17-94]
Qu. # argmax over pIC50 for candidates P and Q // output: label of the selected item
Ans. Q
